# credit: ChEMBL document CHEMBL1134675

# measurement-target: Sodium/potassium-transporting ATPase
# assay-name: Binding affinity towards Na+,K+ -ATPase isolated from dog kidney.
measurement-name: IC50 (µM)
Numbers only, in µM.

Would you please look over these solved cases?
CC[C@@H](C/C=N/OCCN(C)C)[C@@]1(C)CCC2C(CC[C@@H]3C[C@@H](O)CC[C@]23C)C1=O (some centres not stated) ... 0.1
C[C@]12CC[C@H](O)C[C@H]1CC[C@@H]1[C@@H]2CC[C@]2(C)[C@H](C/C=N/OCCCN)CC[C@]12O ... 0.2
CC[C@H](C/C=N/OCCN(C)C)[C@@]1(C)CCC2C(CC[C@@H]3C[C@@H](O)CC[C@]23C)C1=O (some centres not stated) ... 0.8
CC[C@@H](C/C=N/OCCN)[C@@]1(C)CCC2C(CC[C@@H]3C[C@@H](O)CC[C@]23C)C1=O (some centres not stated) ... 0.04
C[C@@H](C/C=N/OCCN)[C@@]1(C)CCC2C(CC[C@@H]3C[C@@H](O)CC[C@]23C)C1=O (some centres not stated) ... 0.1
C[C@]12CC[C@H](O)C[C@H]1CC[C@@H]1[C@@H]2CC[C@]2(C)[C@H](/C=N/OCCCCN)CC[C@]12O ... 1

Give me measured IC50, please, for this compound: CN(C)CCO/N=C/[C@@H]1CC[C@]2(O)[C@@H]3CC[C@@H]4C[C@@H](O)CC[C@]4(C)[C@H]3CC[C@]12C
1.6
